Origin of the recorded values: patent US20150037821A1

# system-tested: PF4 (Homo sapiens, UniProt P02776)
# Construct: platelet factor 4 which is a 70 amino acid, lysine-rich, 7.8 kDa platelet-specific protein; made in house; host or cells: Drosophila Schneider 2 (S2) cells
# Sequence (P02776 32-101): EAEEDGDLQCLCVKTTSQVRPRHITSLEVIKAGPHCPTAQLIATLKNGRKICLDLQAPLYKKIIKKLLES
# method-description: DT40 cell (FcγRIIA + NFAT-Luc reporter) activation assay: inhibition by PF4 antagonists
# Type: cell-based
# condition-summary: activation by KKO; dose-response, FIG. 1C
# Procedure: DT40 cells (chicken B cells) were cultured in RPMI supplemented with 10% fetal bovine serum, 1% chicken serum (Gibco), 50 μM 13-mercaptoethanol, 2 mM GlutaMAX (Gibco), 100 U/mL penicillin and 100 U/mL streptomycin at 37° C. under 5% CO2. Cells were co-transfected with 5 μg pEF6-FcγRIIA and 20 μg pEF6-NFAT-Luc by electroporation. Positive transformants were selected using blastidicin. […]
endpoint-label: inhibition of FcγRIIA-dependent cellular activation (in words)

| smiles-text | reported-measurement |
| --- | --- |
| O=C(O)c1ccccc1OP(=O)(O)O | less potent |
| O=C(O)CCc1ccc(-c2ccc(Cl)cc2)n1CC(=O)O | less potent |
